- assayed_target: Bcr/Abl fusion protein (Homo sapiens)
- Sequence (P00519 whole entry, the tested form may be a part): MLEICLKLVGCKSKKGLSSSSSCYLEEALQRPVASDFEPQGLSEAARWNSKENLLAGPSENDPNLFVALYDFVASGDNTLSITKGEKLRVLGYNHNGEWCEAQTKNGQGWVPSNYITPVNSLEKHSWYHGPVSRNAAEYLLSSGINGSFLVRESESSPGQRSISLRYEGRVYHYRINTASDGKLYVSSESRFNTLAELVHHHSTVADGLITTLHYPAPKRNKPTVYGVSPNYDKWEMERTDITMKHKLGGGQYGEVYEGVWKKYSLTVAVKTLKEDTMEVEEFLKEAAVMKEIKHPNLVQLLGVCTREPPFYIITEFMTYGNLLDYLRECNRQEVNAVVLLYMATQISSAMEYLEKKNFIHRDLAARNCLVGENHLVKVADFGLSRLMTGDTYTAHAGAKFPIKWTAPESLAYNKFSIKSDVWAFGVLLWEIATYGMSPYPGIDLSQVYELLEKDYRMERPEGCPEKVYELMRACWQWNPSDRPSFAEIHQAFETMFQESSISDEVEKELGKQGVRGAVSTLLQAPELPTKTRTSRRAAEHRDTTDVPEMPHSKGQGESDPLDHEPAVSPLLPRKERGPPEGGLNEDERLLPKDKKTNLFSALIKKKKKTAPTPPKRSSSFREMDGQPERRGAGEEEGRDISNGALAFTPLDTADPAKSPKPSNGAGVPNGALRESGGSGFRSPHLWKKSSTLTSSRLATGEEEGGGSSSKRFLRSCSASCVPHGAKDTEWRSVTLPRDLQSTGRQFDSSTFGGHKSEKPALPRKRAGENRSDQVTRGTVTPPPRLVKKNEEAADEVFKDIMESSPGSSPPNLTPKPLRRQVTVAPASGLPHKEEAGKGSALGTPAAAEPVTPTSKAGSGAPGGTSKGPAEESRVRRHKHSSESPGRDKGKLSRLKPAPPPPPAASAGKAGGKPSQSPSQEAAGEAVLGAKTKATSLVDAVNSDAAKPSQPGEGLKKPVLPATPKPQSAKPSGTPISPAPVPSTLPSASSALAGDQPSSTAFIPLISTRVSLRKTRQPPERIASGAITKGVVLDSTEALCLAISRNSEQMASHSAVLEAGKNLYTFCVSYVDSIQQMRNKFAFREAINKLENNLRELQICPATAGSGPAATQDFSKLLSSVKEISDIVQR
- Sequence (P11274 whole entry, further chain, the tested form may be a part): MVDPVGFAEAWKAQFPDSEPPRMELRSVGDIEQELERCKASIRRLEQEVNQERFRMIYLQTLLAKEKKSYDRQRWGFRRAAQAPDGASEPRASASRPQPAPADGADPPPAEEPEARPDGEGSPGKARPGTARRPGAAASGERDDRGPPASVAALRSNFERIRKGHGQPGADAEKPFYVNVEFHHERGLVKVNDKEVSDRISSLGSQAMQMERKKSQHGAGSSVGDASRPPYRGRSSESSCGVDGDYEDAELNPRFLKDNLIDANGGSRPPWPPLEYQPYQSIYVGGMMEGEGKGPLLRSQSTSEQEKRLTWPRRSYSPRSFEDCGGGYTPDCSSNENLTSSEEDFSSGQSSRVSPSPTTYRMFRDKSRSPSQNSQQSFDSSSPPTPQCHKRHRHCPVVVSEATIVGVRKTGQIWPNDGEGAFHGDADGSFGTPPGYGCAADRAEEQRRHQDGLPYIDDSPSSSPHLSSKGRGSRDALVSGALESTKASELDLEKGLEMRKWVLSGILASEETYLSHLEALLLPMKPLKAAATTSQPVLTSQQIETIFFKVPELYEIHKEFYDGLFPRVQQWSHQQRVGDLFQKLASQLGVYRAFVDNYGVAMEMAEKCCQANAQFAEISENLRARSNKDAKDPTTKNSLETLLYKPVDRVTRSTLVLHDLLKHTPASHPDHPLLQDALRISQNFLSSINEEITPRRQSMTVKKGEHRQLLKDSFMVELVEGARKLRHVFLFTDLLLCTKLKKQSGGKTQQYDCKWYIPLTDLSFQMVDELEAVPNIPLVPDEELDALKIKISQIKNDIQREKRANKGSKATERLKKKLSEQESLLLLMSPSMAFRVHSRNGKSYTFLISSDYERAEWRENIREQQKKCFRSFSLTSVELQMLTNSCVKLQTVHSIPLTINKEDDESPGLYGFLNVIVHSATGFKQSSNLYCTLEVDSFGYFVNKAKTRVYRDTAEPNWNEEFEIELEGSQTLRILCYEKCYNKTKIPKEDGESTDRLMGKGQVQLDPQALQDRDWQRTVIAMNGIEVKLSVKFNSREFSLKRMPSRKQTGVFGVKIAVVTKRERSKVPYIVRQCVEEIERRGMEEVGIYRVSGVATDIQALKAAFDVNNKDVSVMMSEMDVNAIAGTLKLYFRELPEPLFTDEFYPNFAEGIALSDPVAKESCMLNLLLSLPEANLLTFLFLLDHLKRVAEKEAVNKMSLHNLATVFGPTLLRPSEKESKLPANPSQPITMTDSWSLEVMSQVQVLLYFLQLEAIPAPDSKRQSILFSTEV
- experiment_summary: Inhibition of Bcr-Abl (unknown origin) phosphorylation by spectrophotometric assay
- Assay type: protein assay
assay_endpoint: pIC50
To interpret pIC50, take it as minus log10 of a concentration measured in moles per litre.

input: Record request: pIC50 value, item Cc1ccc(NC(=O)c2ccc(CN3CCN(CCO)CC3)cc2)cc1Nc1nccc(-c2cccnc2)n1
output: 5.15

input: Thanks! And Cc1ccc(NC(=O)c2ccc(CN3CCN(CCF)CC3)cc2)cc1Nc1nccc(-c2cccnc2)n1 ?
output: 5.86

input: Thanks! And Cc1ccc(NC(=O)c2ccc(CN3CCN(Cc4ccc(I)cc4)CC3)cc2)cc1Nc1nccc(-c2cccnc2)n1 ?
output: 6.13
